So I've got a bunch of compounds here, and I need their pIC50 values.
Target: rat FAAH (Rattus norvegicus, UniProt P97612)
Sequence (P97612 whole entry): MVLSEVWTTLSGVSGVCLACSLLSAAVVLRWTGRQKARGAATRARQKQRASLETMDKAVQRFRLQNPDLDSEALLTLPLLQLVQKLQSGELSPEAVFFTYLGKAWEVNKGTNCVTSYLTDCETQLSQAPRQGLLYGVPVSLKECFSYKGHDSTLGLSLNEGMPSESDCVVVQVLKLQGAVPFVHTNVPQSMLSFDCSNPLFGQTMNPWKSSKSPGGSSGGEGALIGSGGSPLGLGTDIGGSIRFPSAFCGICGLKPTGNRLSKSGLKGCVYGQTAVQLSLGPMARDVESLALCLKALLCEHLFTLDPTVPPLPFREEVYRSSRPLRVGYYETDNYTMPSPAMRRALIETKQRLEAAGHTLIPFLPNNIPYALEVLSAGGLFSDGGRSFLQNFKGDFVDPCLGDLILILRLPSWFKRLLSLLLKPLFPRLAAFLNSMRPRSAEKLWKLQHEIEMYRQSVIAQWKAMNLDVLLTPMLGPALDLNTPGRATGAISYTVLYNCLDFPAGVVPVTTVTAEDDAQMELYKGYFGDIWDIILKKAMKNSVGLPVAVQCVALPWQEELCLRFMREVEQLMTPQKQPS
Test: Assay Method 2: FAAH assay, 3H-anandamide hydrolysis in homogenate of SK-N-MC cells transfected with rat FAAH
Details: average of results, > = solubility limit or highest concentration tested
Structures can show the parent of a compound that is named as a salt.
Numbers only, as −log10 of the molar value.

compound	experimental-target	quantity-kind	measured-value
O=C(Nc1cnccn1)N1CCN(Cc2cccc(C#Cc3ccccc3Cl)c2)CC1 [Example 78, hydrochloride salt]	rat FAAH (Rattus norvegicus, UniProt P97612)	pIC50	6.39
O=C(Nc1noc2ccccc12)N1CCN(Cc2cccc(Oc3ccccc3)c2)CC1 [Example 110]	rat FAAH (Rattus norvegicus, UniProt P97612)	pIC50	7.38
O=C(Nc1ccc(Cl)nn1)N1CCN(Cc2cccc(Oc3cccc(C(F)(F)F)c3)c2)CC1 [Example 44, trifluoroacetic acid salt]	rat FAAH (Rattus norvegicus, UniProt P97612)	pIC50	7.34
O=C(Nc1ccon1)N1CCN(Cc2cccc(Oc3cccc(Br)c3)c2)CC1 [Example 157]	rat FAAH (Rattus norvegicus, UniProt P97612)	pIC50	6.44

Hello, I would appreciate it if you could give pIC50 for each entry below.
1. N#Cc1ccc(Oc2cccc(CN3CCN(C(=O)Nc4noc5ccccc45)CC3)c2)cc1 [Example 125]
2. O=C(Nc1cccc2nsnc12)N1CCN(Cc2cccc(OC(F)(F)F)c2)CC1 [Example 41, trifluoroacetic acid salt]
3. CN(C)CC#Cc1cccc(CN2CCN(C(=O)Nc3noc4ccccc34)CC2)c1 [Example 69]
4. O=C(Nc1noc2ccccc12)N1CCN(Cc2cccc(C#Cc3cccc(Cl)c3)c2)CC1 [Example 73]
5. O=C(Nc1ccon1)N1CCN(Cc2cccc(Oc3ccc(C(F)(F)F)cc3)c2)CC1 [Example 161]

[7.92, 6.85, 5.70, 7.48, 6.80]

src = patent US20090062294A1
